- Tested on: SF-539 CNS
- PROTOCOL DETAILS: NCI-60 one-dose screen, 48 h (100 = growth as untreated, 0 = no growth, -100 = all killed)
- STUDY CONDITIONS: 10 µM unless noted
Compounds without any hit were thinned out: in the full panel of roughly 83,000, 20% have a hit.
MEASUREMENT TYPE: growth (%)
// units = %; emit number, no label

Example entries and their recorded answers appear below.
INSERT INTO results (compound, study_target, measurement_type, value_unit, test_value) VALUES
  ('COc1ccc(/C=C(\C#N)c2ccccc2)cc1', 'SF-539 CNS', 'growth', '%', 87.3),
  ('O=C(CSCC(=O)N/N=C/c1ccccc1O)N/N=C\c1ccccc1O', 'SF-539 CNS', 'growth', '%', 25.6);

Okay, next one:
Suppose we examine the compound `O=C(O)C(=O)O` ; what growth value has been reported?
94.8

Source: PubChem BioAssay (NCI)
